- PROTOCOL_DESCRIPTION: MTT cell viability assay, PH5CH cells, 72 h
- Format: cell-based
- RUN_CONDITIONS: human, immortalized normal hepatocytes PH5CH, 0.016-50.0 μM tested
MEASURED_QUANTITY: CC50 at 72 h (µM)
Express the result in µM but write the number alone.

Which CC50 at 72 h value belongs to OCc1sc(Nc2ncccn2)nc1-c1ccccn1 ?
46.9

Which CC50 at 72 h value belongs to CCc1sc(Nc2ncccn2)nc1-c1ccccn1 ?
44.1

Which CC50 at 72 h value belongs to CCOC(=O)c1sc(Nc2ncccn2)nc1-c1ccccn1 ?
44
